System: M14 melanoma
testName: NCI tumour cell line growth inhibition, 48 h
readoutName: TGI

>>> assayresult("CCCCCCCCCCCCCCCC(=O)OCC1OC(OC)C(NC(=O)N(CCCl)N=O)C(O)C1O (stereo not given)")
"36.4 µM"
>>> assayresult("N#Cc1ccc2[nH]c3c(c2c1)CC(=O)Nc1ccccc1-3")
"> 100 µM"
>>> assayresult("CCCC(C)c1c(Cl)nc(Cl)nc1Cl (stereo not given)")
"3.92 µM"
>>> assayresult("COc1ccc(-c2nc(-c3ccccn3)c(-c3ccccn3)n2CC(C)C)cc1OC1CCCC1")
"114 µM"
>>> assayresult("O=C1c2cccc3c(Cl)ccc(c23)C(=O)N1CCCN1CCN(CCCN2C(=O)c3cccc4c(Cl)ccc(c34)C2=O)CC1")
"> 100 µM"
>>> assayresult("NC(CCc1ncc(-c2ccccc2)s1)C(=O)O (stereo not given)")
"> 100 µM"
>>> assayresult("CC(=O)Nc1ccc(-c2csc(Nc3cccc(-c4csc(-c5ccccc5)n4)c3)n2)cc1")
"> 50 µM"
>>> assayresult("COc1ccc(-c2nnc(SCC(=O)Nc3ccc(C(=O)/C=C/c4cc(OC)c(OC)c(OC)c4)cc3)n2-c2ccccc2)cc1OC")
"> 10 µM"
>>> assayresult("C=C1CCC2C(C)(CO)C(O)CCC2(C)C1C/C=C1/CCOC1=O (stereo not given)")
"> 100 µM"
>>> assayresult("O=C1NC(=O)[C@@H](c2c[nH]c3ccccc23)[C@@H]1c1c[nH]c2ccccc12")
"> 25 µM"

====

System: SK-MEL-28 melanoma
testName: NCI tumour cell line growth inhibition, 48 h
Reported TGI is given for each of the following compounds.
readoutName: TGI

>>> assayresult("O=C(c1nn(-c2ccc(Cl)cc2)cc1O)n1nc(C(F)(F)F)cc1-c1ccccc1")
"> 100 µM"
>>> assayresult("COc1cc(-c2nc(-c3ccc(-c4nc5ccc(F)cc5[nH]4)cc3)no2)cc(OC)c1OC")
"16 µM"
>>> assayresult("CCN(CC)c1ccc2cc(C(N)=O)c(=Nc3ccc(F)cc3)oc2c1")
"> 100 µM"
>>> assayresult("CN1CCN(c2ccc3nc(-c4[nH]ncc4Nc4ncnc5c4OCCCN5)[nH]c3c2)CC1")
"0.104 µM"
>>> assayresult("O=Cc1c(Br)[nH]c2ccccc12")
"> 100 µM"
>>> assayresult("c1ccc2c(c1)Sc1ccccc1N2C1CN2CCC1CC2 (configuration not stated)")
"32.1 µM"
>>> assayresult("CN(C)CC1CCCCCC(Br)C1=O (configuration not stated)")
"34 µM"
>>> assayresult("CCC(=O)N1C(=O)C(CC)(CC)C(=O)N1C(=O)CC")
"> 100 µM"
>>> assayresult("COc1ccc(-n2cc(-c3cc(OC)c(OC)c(OC)c3)[nH]c2=S)cc1Cl")
"> 100 µM"
>>> assayresult("COC1C(CO)OC(n2c3c(Cl)cccc3c3c4c(c5c6cccc(Cl)c6[nH]c5c32)C(=O)NC4=O)C(O)C1O (configuration not stated)")
"> 73.5 µM"
>>> assayresult("O=C1c2cc3c(cc2CC1Cc1ccc2c(c1)CCC2)CCC3 (configuration not stated)")
"> 100 µM"
>>> assayresult("O=C(CC(c1ccccc1)C(C(=O)c1ccncc1)C(CC(=O)c1ccncc1)c1ccccc1)c1ccncc1 (configuration not stated)")
"> 100 µM"
>>> assayresult("O=c1c2cc(I)ccc2nc(SCc2nnco2)n1Cc1ccccc1")
"> 100 µM"
>>> assayresult("CN(C)C=NCC(O)c1ccccc1 (configuration not stated)")
"> 100 µM"
>>> assayresult("Oc1ccc(Oc2cnc3cc(Cl)ccc3n2)cc1")
"> 100 µM"
>>> assayresult("O=C1/C(=C/c2ccc(Cl)c(Cl)c2)CNC/C1=C\\c1ccc(Cl)c(Cl)c1")
"62.9 µM"
>>> assayresult("OCC(O)COc1c(Cl)cc(Cl)cc1Cl (configuration not stated)")
"> 100 µM"
